Exercise: state measured half-life at 1 µM for each of the molecules provided.
test: Metabolic stability in human liver microsomes assessed as half life at 1 uM incubated upto 60 mins by LC-MS/MS analysis; assay type: ADME, Microsome
One number for each entry, in min.

Consider the worked cases shown below.
{"molecule": "CCOC(=O)N1CCC(CN(Cc2ccc(Cl)cc2)Cc2ccc([N+](=O)[O-])s2)C1 (stereo not drawn)", "half-life at 1 µM [min]": 2.23}
{"molecule": "O=C(C1CC1)N1CCC(CN(Cc2ccc([N+](=O)[O-])s2)Cc2ccc(F)cc2F)C1 (stereo not drawn)", "half-life at 1 µM [min]": 2.3}

For O=C(C1CC1)N1CCC(CN(Cc2ccc(Cl)c(Cl)c2)Cc2ccc([N+](=O)[O-])s2)C1 (stereo not drawn) , write its half-life at 1 µM.
3.37

###

Exercise: state measured remaining at 0.5 h, 1 µM for each of the molecules provided.
assay: Metabolic stability in human liver microsomes assessed as compound remaining at 1 uM measured after 30 mins in presence of NADPH/UDPGA by LC-MS/MS analysis; assay type: ADME, Microsome; settings: read-out: Stability
One number for each entry, in %.

Answered examples (2):
{"molecule": "CCOC(=O)N1CCC(CN(Cc2ccc(Cl)cc2)Cc2ccc([N+](=O)[O-])s2)C1 (stereo not drawn) [SR9009]", "units": "%", "measured": 0.04}
{"molecule": "O=C(C1CC1)N1CCC(CN(Cc2ccc([N+](=O)[O-])s2)Cc2ccc(F)cc2F)C1 (stereo not drawn)", "units": "%", "measured": 0.23}

Then there is this molecule:
Name the recorded remaining at 0.5 h, 1 µM of the molecule listed here: O=C(C1CC1)N1CCC(CN(Cc2ccc(Cl)c(Cl)c2)Cc2ccc([N+](=O)[O-])s2)C1 (stereo not drawn)
0.91

###

Task for the reader: assign each of the following compounds its reported remaining at 0 min, 1 µM.
assay: Metabolic stability in human liver microsomes assessed as compound remaining at 1 uM measured immediately by LC-MS/MS analysis; format: ADME, Microsome; details: read-out: Stability
The answer should read as a number with its unit following.

{"compound": "O=C(C1CC1)N1CCC(CN(Cc2ccc(Cl)c(Cl)c2)Cc2ccc([N+](=O)[O-])s2)C1 (stereo not drawn)", "remaining at 0 min, 1 µM": "100%"}
{"compound": "O=C(C1CC1)N1CCC(CN(Cc2ccc([N+](=O)[O-])s2)Cc2ccc(F)cc2F)C1 (stereo not drawn)", "remaining at 0 min, 1 µM": "100%"}

The record that follows has no remaining at 0 min, 1 µM shown yet.
Provide measured remaining at 0 min, 1 µM value, entry: CCOC(=O)N1CCC(CN(Cc2ccc(Cl)cc2)Cc2ccc([N+](=O)[O-])s2)C1 (stereo not drawn) [SR9009]
100%

###

assay: Metabolic stability in human liver microsomes assessed as compound remaining at 1 uM measured after 30 mins by LC-MS/MS analysis; type: ADME, Microsome; settings: read-out: Stability
Exercise: state measured remaining at 0.5 h, 1 µM for each of the compounds provided.
Answers are plain numbers, in %.

# annotated cases, reported remaining at 0.5 h, 1 µM shown
{"compound": "O=C(C1CC1)N1CCC(CN(Cc2ccc(Cl)c(Cl)c2)Cc2ccc([N+](=O)[O-])s2)C1 (stereo not drawn)", "units": "%", "remaining at 0.5 h, 1 µM": 108}
{"compound": "O=C(C1CC1)N1CCC(CN(Cc2ccc([N+](=O)[O-])s2)Cc2ccc(F)cc2F)C1 (stereo not drawn)", "units": "%", "remaining at 0.5 h, 1 µM": 103}

# next compound below
Read off the recorded remaining at 0.5 h, 1 µM for CCOC(=O)N1CCC(CN(Cc2ccc(Cl)cc2)Cc2ccc([N+](=O)[O-])s2)C1 (stereo not drawn)
98.5
